# credit: PubChem BioAssay (EPA / NIEHS)

read-out: Heat shock 70 kDa protein 1 (HSPA1A), gene 3303; assay: LTEA_HepaRG_HSPA1A: Life Technologies and Expression Analysis (LTEA) Assay for Heat shock 70 kDa protein 1 (HSPA1A) using HepaRG (AID 2283502); conditions: mRNA level, 48 h; actives raise or lower the signal
Calls of active or inactive are those of the source. How the source made its calls: active means hit-call score of the fitted dose curve at least 0.9, where 1 is the maximum; inactive means score below 0.9.
Possible outcomes: active, inactive

[[record]]
compound = "CCCC(=O)O"
group = "inactive"

[[record]]
compound = "CC(C)c1cccc(C(C)C)c1NC(=O)NS(=O)(=O)c1cc(C(C)(C)O)co1"
group = "inactive"

[[record]]
compound = "O=C(N[C@@H](c1ccccc1)[C@@H]1CCCCN1)c1cccc(C(F)(F)F)c1Cl"
group = "active"

[[record]]
compound = "CC1(C)C(=O)NC(=O)N1CO"
group = "inactive"

[[record]]
compound = "O=C(O)c1cccnc1"
group = "inactive"

[[record]]
compound = "CCOCCOCCO"
group = "inactive"

[[record]]
compound = "CN(C)CCCN(C)CCCN(C)C"
group = "inactive"

[[record]]
compound = "OCC(O)CO"
group = "inactive"

[[record]]
compound = "CC(C)c1cccc(C(C)C)c1"
group = "inactive"

[[record]]
compound = "CN(C)C(=O)NC1(c2ccccc2)CCN(CC[C@@]2(c3ccc(F)c(F)c3)CN(C(=O)c3ccccc3)CCO2)CC1"
group = "inactive"

[[record]]
compound = "CC(=O)O[C@]1(C(C)=O)CC[C@H]2[C@@H]3C=C(Cl)C4=CC(=O)[C@@H]5C[C@@H]5[C@]4(C)[C@H]3CC[C@@]21C"
group = "active"

[[record]]
compound = "CCCCC(CC)COC(=O)CCCCCCCC(=O)OCC(CC)CCCC (configuration not stated)"
group = "inactive"

